# Run description: clinical
# Experimental context: human, in vivo, po, Mean plasma glucose concentration
Value kind: concentration at 0.5 h

Given the compound "O=C[C@H](O)[C@@H](O)[C@H](O)[C@H](O)CO" , write its reported concentration at 0.5 h.
1050 µg/mL

----------
# Run description: Brain and plasma tyrosine ratios in fasted rats, tyrosine and glucose given concurrently (Example II, second set)
# Experimental context: rat, brain, po, 100 mg/kg
Value kind: Kp at […]
// response body must contain only the number

Given the molecule "N[C@@H](Cc1ccc(O)cc1)C(=O)O" , write its reported Kp at […].
0.77

Data origin, for the record: patent US4542123A
